- System: VIPR2 (Homo sapiens, UniProt P41587)
- Sequence (P41587 24-438): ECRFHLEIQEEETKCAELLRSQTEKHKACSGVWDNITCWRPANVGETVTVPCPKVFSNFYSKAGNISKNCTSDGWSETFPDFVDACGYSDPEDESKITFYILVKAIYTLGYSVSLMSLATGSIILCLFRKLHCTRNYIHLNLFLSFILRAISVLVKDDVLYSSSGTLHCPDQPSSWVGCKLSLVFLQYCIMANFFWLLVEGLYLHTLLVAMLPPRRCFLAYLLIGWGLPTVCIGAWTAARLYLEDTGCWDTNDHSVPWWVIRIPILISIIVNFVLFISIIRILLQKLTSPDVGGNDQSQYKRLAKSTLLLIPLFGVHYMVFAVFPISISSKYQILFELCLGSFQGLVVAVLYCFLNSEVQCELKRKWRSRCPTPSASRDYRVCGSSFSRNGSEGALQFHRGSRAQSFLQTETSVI
- Measurement protocol: BRET-based VIPR2 activation assay (CAMYEL cAMP sensor, CHO cells, VIP background)
- Applied conditions: Table 3; read-out: IC50 (from BRET)
pIC50: −log10 of the molar value.
Experimental endpoint: pIC50

These recorded examples may help you get a feel for the data.
CCCc1ccc(S(=O)(=O)NC[C@@H](O)C[C@@H](Cc2ccccc2)C(=O)N[C@H]2c3ccccc3C[C@H]2O)cc1 [Compound X113]
5.38
O=C(N[C@H]1c2ccccc2C[C@H]1O)[C@H](Cc1ccccc1)C[C@H](O)CNS(=O)(=O)c1ccc(OC(F)(F)F)cc1 [Compound X112]
3.82
CS(=O)(=O)c1ccc(S(=O)(=O)NC[C@@H](O)C[C@@H](Cc2ccccc2)C(=O)N[C@H]2c3ccccc3C[C@H]2O)cc1 [Compound X111]
4.88
CCC(C)c1ccc(S(=O)(=O)NC[C@@H](O)C[C@@H](Cc2ccccc2)C(=O)N[C@H]2c3ccccc3C[C@H]2O)cc1 (stereo partly shown) [Compound X117]
3.82
CCC(C)Oc1ccc(S(=O)(=O)NC[C@@H](O)C[C@@H](Cc2ccccc2)C(=O)N[C@H]2c3ccccc3C[C@H]2O)cc1 (stereo partly shown) [Compound X120]
4.34

[1] CCCOc1ccc(S(=O)(=O)NC[C@@H](O)C[C@@H](Cc2ccccc2)C(=O)N[C@H]2c3ccccc3C[C@H]2O)cc1 [Compound X118]
[2] Cc1ccc(S(=O)(=O)NC[C@@H](O)C[C@@H](Cc2ccccc2)C(=O)N[C@H]2c3ccccc3C[C@H]2O)cc1C [Compound X116]
stdin: Compare pIC50: is it lower for 1 or for 2 ? Identify your pick by its label.
stdout: 2
